- experimental setup: [M+Na]+; instrument: DT; stepped-field
collision cross section (N2) listing for selected compounds.
Number in Å², nothing else.

{"columns": ["smi", "unit tag", "experimental result"],
 "data": [
  ["CC(=O)N[C@H]1[C@H](O[C@H]2[C@@H](O)[C@@H](CO)O[C@@H](O[C@@H]([C@H](O)[C@@H](O)C=O)[C@H](O)CO)[C@@H]2O)O[C@H](CO)[C@@H](O[C@@H]2O[C@@H](C)[C@@H](O)[C@@H](O)[C@@H]2O)[C@@H]1O[C@@H]1O[C@H](CO)[C@H](O)[C@H](O)[C@H]1O", "Å²", 271.1]
]}

# input for lookup
Task item: Which collision cross section (N2) is reported for this compound? `CCCCC/C=C\C/C=C\CCCCCCCCCC(=O)O[C@H](COC(=O)CCCCCCC/C=C\CCCCCCC)COP(=O)(O)OCCN`
Reply: 286.2

----------
- experimental setup: [M+NH4]+; instrument: DT; single field, calibrated with Agilent tune mix (Agilent)
property label: collision cross section (N2) (Å²)
Number in Å², nothing else.

Task item: Which collision cross section (N2) is reported for this compound? `CCCCC/C=C\C/C=C\CCCCCCCCCC(=O)O[C@H](COC(=O)CCCCCCC/C=C\CCCCCCCC)COC(=O)CCCCCCCCCCC/C=C\CCCCCCCC`
Reply: 340.7

Task item: Next compound up: `CCCCCCCCCC/C=C\CCCCCCCCCC(=O)OC[C@@H](COC(=O)CCCCCCCCCCCC)OC(=O)CCCCCCCCC/C=C\CCCCCCCCCC`
Reply: 334.6

Task item: Next compound up: `CCCC/C=C\CCCCCCCC(=O)OC[C@H](COC(=O)CCCCCCCCCCCCCCCCCCCC)OC(=O)CCCCCCC/C=C\CCCC`
Reply: 310.5

Task item: Next compound up: `CCCCCCCCCC/C=C\CCCCCCCCCC(=O)OC[C@@H](COC(=O)CCCCCCCCCCCCC)OC(=O)CCCCCCCCC/C=C\CCCCCCCCCC`
Reply: 337.8

Task item: Next compound up: CCCC/C=C\C/C=C\CCCCCCCC(=O)O[C@H](COC(=O)CCCCCCC/C=C\CCCCCCCCC)COP(=O)(O)O[C@H]1C(O)C(O)C(O)[C@@H](O)C1O (stereo partly specified)
Reply: 297.4

Task item: Next compound up: CCCCC/C=C\C/C=C\CCCCCCCCCCCC(=O)O[C@H](COC(=O)CCCCCCCCCCCC)COP(=O)(O)O[C@H]1C(O)C(O)C(O)[C@@H](O)C1O (stereo partly specified)
Reply: 295.6

----------
- experimental setup: [M-H]-; instrument: TW; calibrated with phosphatidylcholines (ESI+) and phosphatidylethanolamines (ESI-), doubly charged cardiolipins calibrated with poly-DL-…
Label scheme for collision cross section (N2): lower than 300 Å² is Condition not met, 300 Å² and above is Condition met.

Use these answered entries as a reference point.
{"columns": ["compound", "label class"],
 "data": [
  ["CCCCCC/C=C\\CCCCCCCC(=O)OCC(COP(=O)(O)O)OC(=O)CCCCCCC/C=C\\CCCCCCCC (stereo unspecified) [PA(34:2)]", "Condition not met"],
  ["CCCCCCCCCCCCCCCC(=O)OCC(COP(=O)(O)OCC(O)CO)OC(=O)CCCCCCCC1CC1CCCCCC (stereo unspecified) [PG(33:1)]", "Condition not met"],
  ["CCCCCCCCCCCCCCCC(=O)O[C@H](CO)COP(=O)([O-])OCC[NH3+] [LPE(0:0/16:0)]", "Condition not met"]
]}

Task item: Hello, I need to know if CCCCCCCC/C=C\CCCCCCCC(=O)OC(COC(=O)CCCCCCCCCCCCCCCCC)COP(=O)(O)OCCN (stereo unspecified) [PE(36:1)] has measured collision cross section (N2) not below 300 Å². Thanks!
Reply: Condition not met

Task item: Next compound up: CCCCCC/C=C\CCCCCCCC(=O)OC[C@H](COP(=O)(O)OC[C@@H](O)COC(=O)CCCCCCCCCCCCCCC)OC(=O)CCCCCCCCCCCCCC [AcylPG(47:1)]
Reply: Condition met

Task item: Next compound up: CCCCCC/C=C\CCCCCCCC(=O)OCC(COP(=O)(O)OCC(O)CO)OC(=O)CCCCCCC/C=C\CCCCCC (stereo unspecified) [PG(32:2)]
Reply: Condition not met

----------
- experimental setup: [M+H]+; instrument: TW; calibrated with polyalanine and drug standards
property label: collision cross section (N2) (Å²)
Number in Å², nothing else.

{"columns": ["molecule", "experimental result"],
 "data": [
  ["O=c1cc(-c2ccccc2)oc2cc(O)cc(O)c12", 151.7],
  ["CCCSc1ccc2nc(NC(=O)OC)[nH]c2c1", 162],
  ["C[C@@H]1CC[C@H]2C(C)(C)[C@H]3C[C@@]12CC[C@@]3(C)O", 145.9]
]}

Task item: Which collision cross section (N2) is reported for this molecule? `CN(C)c1nc(N(C)C)nc(N(C)C)n1`
Reply: 145.6

Task item: Next molecule up: O=c1[nH]c2cc(Cl)c(Cl)cc2[nH]c1=O [2,3-DIHYDROXY-6,7-DICHLOROQUINOXALINE]
Reply: 143

Task item: Next molecule up: `CC(C)(Oc1ccc(Cl)cc1)C(=O)O`
Reply: 146.6

----------
- experimental setup: [M+H]+; instrument: TW; calibrated with polyalanine and drug standards
collision cross section (N2) listing for selected molecules.
Number in Å², nothing else.

Solved entries (count: 6):
{"columns": ["molecule", "collision cross section (N2), Å²"],
 "data": [
  ["O=c1c(O)c(-c2ccccc2)oc2cc(O)ccc12 [3,7-DIHYDROXYFLAVONE]", 152.1],
  ["CC1(C)CC2C1CC[C@]1(CBr)CCC3C(CC(=O)O)C(=O)O[C@@]32C1 (some centres not stated) [BROMO-3-HYDROXY-4-(SUCCIN-2-YL)-CARYOLANE gamma-LACTONE]", 183.4],
  ["CC1=C(O)C(=O)C=C2C1=CC=C1[C@@]2(C)CC[C@@]2(C)[C@@H]3C[C@](C)(C(=O)O)CC[C@]3(C)CC[C@]12C [CELASTROL]", 205.6],
  ["CC(=O)OCC(=O)[C@@]1(OC(C)=O)[C@@H](C)C[C@H]2[C@@H]3C[C@H](F)C4=CC(=O)C=C[C@]4(C)[C@@]3(F)[C@@H](O)C[C@@]21C [DIFLORASONE DIACETATE]", 209.5],
  ["O=c1cc([C@H]2Oc3cc(O)cc(O)c3C[C@H]2O)cc2c([C@H]3Oc4cc(O)cc(O)c4C[C@H]3O)cc(O)c(O)c2c1O [THEAFLAVIN]", 219.8],
  ["CC(C)NCC(O)COc1ccc(CC(N)=O)cc1 (configuration not stated) [ATENOLOL]", 159]
]}

# input for lookup
Task item: Which collision cross section (N2) is reported for this molecule? COc1cc2c(cc1OC)[C@@H]1C(=O)c3ccc4oc(C(C)C)cc4c3O[C@@H]1CO2 [ISOROTENONE]
Reply: 195.2

----------
- experimental setup: [M-H]-; instrument: DT; single field, calibrated with ESI Low Concentration Tuning Mix (Agilent)
collision cross section (N2) listing for selected compounds.
Number in Å², nothing else.

{"columns": ["compound", "unit tag", "collision cross section (N2)"],
 "data": [
  ["CC(=O)N1CCC[C@H]1C(=O)O", "Å²", 133.7]
]}

Task item: Which collision cross section (N2) is reported for this compound? O=C(O)CC(O)(CC(=O)O)C(=O)O [CITRATE]
Reply: 127.1

Task item: Next compound up: `Nc1ccn([C@H]2C[C@H](O)[C@@H](CO)O2)c(=O)n1`
Reply: 148.7

Task item: Next compound up: CCOC(=O)Cc1c[nH]c2ccccc12 [ETHYL 3-INDOLEACETATE]
Reply: 145.6

----------
collision cross section (N2) listing for selected compounds.
- experimental setup: [M+Cl]-; instrument: DT; stepped-field
Number in Å², nothing else.

Solved entries (count: 5):
{"columns": ["smi", "experimental result"],
 "data": [
  ["CCCCCCCCCCC/C=C\\CCCCC(=O)O[C@H](COC(=O)CCCCCCCCCCCCCCCCC)COP(=O)([O-])OCC[N+](C)(C)C", 296.27],
  ["CCCCC/C=C\\C/C=C\\CCCCCCCCCC(=O)O[C@H](COC(=O)CCCCCCCCCCCCCCCCC)COP(=O)([O-])OCC[N+](C)(C)C", 300.55],
  ["CCCC/C=C\\CCCCCCCC(=O)OC[C@H](COP(=O)([O-])OCC[N+](C)(C)C)OC(=O)CCCCCCCCC/C=C\\C/C=C\\CCCCC", 287.96],
  ["CCCCCCCCCCCCC=CC[C@@H](O)[C@H](COP(=O)([O-])OCC[N+](C)(C)C)NC(=O)CCCCCCCCCCCCCCCCC", 288.69],
  ["CCCCCCCCCCCCC=CC[C@@H](O)[C@H](COP(=O)([O-])OCC[N+](C)(C)C)NC(=O)CCCCCCCCCCCCCCC", 284.26]
]}

Task item: Which collision cross section (N2) is reported for this compound? `CCCCCCCCCCCCC=CC[C@@H](O)[C@H](COP(=O)([O-])OCC[N+](C)(C)C)NC(=O)CC=CCCCCCCCCCCCCCCCCCC`
Reply: 299.55

Task item: Next compound up: `CCCCCCCC/C=C\C/C=C\CCCCC(=O)O[C@H](COC(=O)CCCCCCC/C=C\CCCCCCCC)COP(=O)([O-])OCC[N+](C)(C)C`
Reply: 293.42
